assay: antivirals protecting cells from dengue CPE – CPE readout, HTS (AID 540333); settings: Dengue virus CPE inhibition in host cells, at 20 µM
Hit rate of the full screen: of about 10,000 compounds, about 320 (3.2%) were called active. No stated cut-off is given here; in the data, active means CPE inhibition mostly above about 9.1% (no sharp cut-off); inactive means mostly below about 7.2%. For the sample, actives were picked, then their nearest neighbours and some compounds at random.
Select the matching outcome among true (1) for active, false (0) for inactive

O=C(Cc1ccc(Br)cc1)N1CCN(c2ccccn2)CC1 ... false (0)
CCC1Nc2ncnc(N3CCN(c4ccccc4)CC3)c2N(Cc2ccc(Br)cc2)C1=O (stereo not given) ... true (1)
Cc1cccc2cc(C3CC(c4ccco4)=NN3C(=O)CCC(=O)O)c(Cl)nc12 (stereo not given) ... false (0)
COc1ccc(C(C(=O)Nc2ccc3c(c2)OCO3)N(C)C(=O)Cc2c[nH]c3ccccc23)cc1 (stereo not given) ... true (1)
O=C(/C=C\Nc1ccc(Br)cc1)c1cccnc1 ... false (0)
CC(C)CC1Nc2ncnc(N3CCN(c4ccccn4)CC3)c2N(Cc2ccccc2)C1=O (stereo not given) ... false (0)
COC(=O)c1c(NC(=O)C2C3C=CC(CC3)C2C(=O)O)sc(C)c1C (stereo not given) ... false (0)
S=C(Nc1ccccc1Cl)N1CCCCC1 ... false (0)
Cc1ccc(CN2C(=O)C(CC(C)C)Nc3ncnc(N4CCN(c5ccccc5)CC4)c32)cc1 (stereo not given) ... true (1)

Please look at the following compound next.
// outcome(item) with item = CC(C)CC1Nc2ncnc(N3CCN(c4ccccn4)CC3)c2N(Cc2ccc(Cl)cc2)C1=O (stereo not given)
true (1)
